# System: SW403
# assayText: OncoPanel cytotoxicity assay
# Format: cell-based
# runParameters: Homo sapiens, SW-403, 72 hour incubation
outcomeMeasure: IC50

molecule="CC[C@@H]1CNC2(CC2)CN1C(=O)[C@@H]1C[C@@H](F)CN1C(=O)C1=C(C(C)C)N2C(=N[C@@](C)(c3ccc(Cl)nc3)[C@H]2c2ccc(Cl)c(F)c2)S1 [Compound A]" reading="> 40 µM"
molecule="CC1(C)CCC2(CC1)N[C@@H](C(=O)N[C@@H]1CC[C@@H](C(N)=O)OC1)[C@H](c1ccnc(Cl)c1F)[C@]21C(=O)Nc2cc(Cl)ccc21 [Compound B]" reading="> 10 µM"

meta.source: patent US20160333419A1
